# assay.remarks: Antagonist activity at P2Y12 receptor assessed as platelet aggregation by washed platelet assay
measured.endpoint: IC50 (nM)
Write it as a number; the unit nM goes unstated.

# get_value(readout='IC50', item= CCNC(=O)Nc1ncnc2c1ncn2[C@@H]1O[C@H](COP(=O)(O)O)[C@H]2O[C@H](/C=C/c3ccccc3)O[C@H]21 [REGRELOR DISODIUM] )
16

* * *

# experimental.target: P2Y purinoceptor 12 (Homo sapiens) (UniProt Q9H244)
# Sequence (Q9H244 whole entry): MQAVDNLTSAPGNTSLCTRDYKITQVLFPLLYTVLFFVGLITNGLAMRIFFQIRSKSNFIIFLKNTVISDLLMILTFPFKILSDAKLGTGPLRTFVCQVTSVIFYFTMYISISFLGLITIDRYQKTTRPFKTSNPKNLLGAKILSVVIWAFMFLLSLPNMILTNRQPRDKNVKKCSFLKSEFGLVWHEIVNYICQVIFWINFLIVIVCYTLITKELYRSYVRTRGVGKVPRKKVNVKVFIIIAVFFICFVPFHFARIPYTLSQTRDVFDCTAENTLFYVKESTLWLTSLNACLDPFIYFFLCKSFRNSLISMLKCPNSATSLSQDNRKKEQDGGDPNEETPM
# assay.remarks: Antagonist activity at P2Y12 receptor assessed as platelet aggregation at 30 uM by washed platelet assay
# Type: functional
measured.endpoint: inhibition (%)
Write it as a number; the unit % goes unstated.

CCNC(=O)Nc1ncnc2c1ncn2[C@@H]1O[C@H](CSCC(C)O)[C@H]2O[C@H](/C=C/c3ccccc3)O[C@H]21 (some centres undefined) | 76

# get_value(readout='inhibition', item= CCNC(=O)Nc1ncnc2c1ncn2[C@@H]1O[C@H](CNCc2ccccc2O)[C@H]2O[C@H](/C=C/c3ccccc3)O[C@H]21 )
70

* * *

# experimental.target: P2Y purinoceptor 12 (Homo sapiens) (UniProt Q9H244)
# assay.remarks: Antagonist activity at P2Y12 receptor assessed as platelet aggregation at 30 uM by washed platelet assay
# Type: functional
inhibition values for the compounds below.
Write it as a number; the unit % goes unstated.

Recorded results for 6 compounds are shown here.
CCNC(=O)Nc1ncnc2c1ncn2[C@@H]1O[C@H](CSC)[C@H]2O[C@H](/C=C/c3ccccc3)O[C@H]21 | 63
CCCCCCCSC[C@H]1O[C@@H](n2cnc3c(NC(=O)NCC)ncnc32)[C@@H]2O[C@@H](/C=C/c3ccccc3)O[C@@H]21 | 38
CCNC(=O)Nc1ncnc2c1ncn2[C@@H]1O[C@H](CSCCCS(=O)(=O)O)[C@H]2O[C@H](/C=C/c3ccccc3)O[C@H]21 | 90
CCCSC[C@H]1O[C@@H](n2cnc3c(NC(=O)NCC)ncnc32)[C@@H]2O[C@@H](/C=C/c3ccccc3)O[C@@H]21 | 52
CCNC(=O)Nc1ncnc2c1ncn2[C@@H]1O[C@H](CS(=O)(=O)CCO)[C@H]2O[C@H](/C=C/c3ccccc3)O[C@H]21 | 57
CCNC(=O)Nc1ncnc2c1ncn2[C@@H]1O[C@H](CNC(=O)c2[nH]c(C)c(C(C)=O)c2C)[C@H]2O[C@H](/C=C/c3ccccc3)O[C@H]21 | 53

# get_value(readout='inhibition', item= CCNC(=O)Nc1ncnc2c1ncn2[C@@H]1O[C@H](CS(=O)(=O)CC(O)CO)[C@H]2O[C@H](/C=C/c3ccccc3)O[C@H]21 (some centres not stated) )
14

# get_value(readout='inhibition', item= CCNC(=O)Nc1ncnc2c1ncn2[C@@H]1O[C@H](CSCCO)[C@H]2O[C@H](/C=C/c3ccccc3)O[C@H]21 )
63

# get_value(readout='inhibition', item= CCNC(=O)Nc1ncnc2c1ncn2[C@@H]1O[C@H](CNCc2nccs2)[C@H]2O[C@H](/C=C/c3ccccc3)O[C@H]21 )
73

# get_value(readout='inhibition', item= CCNC(=O)Nc1ncnc2c1ncn2[C@@H]1O[C@H](CN(CC2CC2C(=O)OCC)CC2CC2C(=O)OCC)[C@H]2O[C@H](/C=C/c3ccccc3)O[C@H]21 (some centres not stated) )
46

# get_value(readout='inhibition', item= CCNC(=O)Nc1ncnc2c1ncn2[C@@H]1O[C@H](CNC/C(C)=C/C(=O)OCC)[C@H]2O[C@H](/C=C/c3ccccc3)O[C@H]21 )
70

# get_value(readout='inhibition', item= CCCS(=O)(=O)C[C@H]1O[C@@H](n2cnc3c(NC(=O)NCC)ncnc32)[C@@H]2O[C@@H](/C=C/c3ccccc3)O[C@@H]21 )
65
